Test system: OVCAR-5 complex spheroids with HUVEC/MSC, viability, % test/control
assay: Anticancer human tumor OVCAR-5 cell line growth inhibition [AhR];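 also: spheroids exposed to compounds for 7 days; 100% = DMSO vehicle control wells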
cond: second compound 3.16 µM; first compound 0.316 µM; hits give low values
measuredMetric: viability, T/C

1. Nc1ncn(C2CC(O)C(CO)O2)c(=O)n1 (stereo unspecified) + Cc1ccccc1N=Nc1ccc(NC(=O)c2ccnn2C)c(C)c1
72%
2. O=C(c1cc(Cc2n[nH]c(=O)c3ccccc23)ccc1F)N1CCN(C(=O)C2CC2)CC1 + Cc1cncc(-c2nc(NCCc3c[nH]c4ccccc34)c3ncn(C(C)C)c3n2)c1
75.2%
3. COc1cc(C2c3cc4c(cc3C(OC3OC5COC(C)OC5C(O)C3O)C3COC(=O)C23)OCO4)cc(OC)c1O (stereo unspecified) + Cc1cncc(-c2nc(NCCc3c[nH]c4ccccc34)c3ncn(C(C)C)c3n2)c1
67.9%
4. COc1ccc([C@@H](O)c2cc(-c3ncnc4cc(N5CCOCC5)ccc34)c(F)cc2Cl)nn1 + Cc1ccccc1N=Nc1ccc(NC(=O)c2ccnn2C)c(C)c1
98.9%
5. CC1COCCN1c1cc(-c2ccnn2C)c2ccnc(-c3ccn[nH]3)c2n1 (stereo unspecified) + CC(CO)NC(=O)c1cc(-c2ccc(Cl)cc2)nn(-c2cnn(C)c2)c1=O
40.3%
6. COc1cc(C2c3cc4c(cc3C(OC3OC5COC(C)OC5C(O)C3O)C3COC(=O)C23)OCO4)cc(OC)c1O (stereo unspecified) + Cc1ccccc1N=Nc1ccc(NC(=O)c2ccnn2C)c(C)c1
110%

Origin of values: PubChem BioAssay AID1919015
